system_name: CYP17 (human testicular microsome) (Homo sapiens, UniProt P05093)
Construct: using microsomal fraction from human testis (Celsis Cat #S00110) as the enzyme source; tissue Celsis S00110; host or cells: human testis microsomal fraction
protocol_details: CYP17 enzymatic assay (% inhibition at 10 nM), version 1 (Biological Example 5)
Format: biochemical
conditions_used: 10 nM compound, DHEA by ELISA, read-out: Biological Example No. 5: CYP17 percent inhibition at 10 nM (version 1)
measured_attribute: inhibition at 0.01 µM

For orientation, consider the following solved cases.
{"columns": ["compound", "inhibition at 0.01 µM"],
 "data": [
  ["CCOc1cncc(C2=CC[C@H]3[C@@H]4CC[C@H]5CCOCC[C@]5(C)[C@H]4CC[C@]23C)c1 [Compound 124]", "50 to 80%"],
  ["C[C@]12CC[C@H]3[C@@H](CCN4C(=O)CCCC[C@]34C)[C@@H]1CC=C2c1cccnc1 [Compound 38]", "50 to 80%"],
  ["CCOc1cncc(C2=CC[C@H]3[C@@H]4CCC5N(C)C(=O)COC[C@]5(C)[C@H]4CC[C@]23C)c1 (stereo partly shown) [Compound 99]", "1 to 50%"],
  ["CC(=O)O[C@H]1CC[C@@]2(C)[C@@H](CC[C@@H]3[C@@H]2CC[C@]2(C)C(n4ccnn4)=CC[C@@H]32)C1 [Compound 130]", "> 80%"],
  ["Cc1cncc(C2=CC[C@H]3[C@@H]4CC[C@H]5COC(=O)CC[C@]5(C)[C@H]4CC[C@]23C)c1 [Compound 119]", "1 to 50%"],
  ["Cc1cncc(C2=CC[C@H]3[C@@H]4CC[C@H]5CCOCC[C@]5(C)[C@H]4CC[C@]23C)c1 [Compound 126]", "50 to 80%"]
]}

Turning now to a further record.
Indicate its recorded inhibition at 0.01 µM; the compound in question is Cc1ccncc1C1=CC[C@H]2[C@@H]3CC[C@H]4CCCCC[C@]4(C)[C@H]3CC[C@]12C [Compound 95] 1 to 50%

###

protocol_details: Rat liver microsome stability assay (Biological Example 8a)
conditions_used: liver microsomes, pH 7.4
measured_attribute: half-life at 1 μM

{"columns": ["compound", "half-life at 1 μM"],
 "data": [
  ["COc1cncc(C2=CC[C@H]3[C@@H]4CC(=O)C5CCCC[C@]5(C)[C@H]4CC[C@]23C)c1 (stereo partly shown)", "1 to 10 min"],
  ["COc1cncc(C2=CC[C@H]3[C@@H]4CC[C@H]5CCOCC[C@]5(C)[C@H]4CC[C@]23C)c1", "1 to 10 min"],
  ["C[C@]12CCNC(=O)C=C1CC[C@@H]1[C@@H]2CC[C@]2(C)C(c3cncnc3)=CC[C@@H]12", "1 to 10 min"],
  ["C[C@]12CC(O)C[C@@H]1CC[C@@H]1[C@@H]2CC[C@]2(C)C(n3ccnc3)=CC[C@@H]12 (stereo partly shown)", "10 to 60 min"]
]}

Indicate its recorded half-life at 1 μM; the compound in question is COc1cncc(C2=CC[C@H]3[C@@H]4CCN5C(=O)CCCC[C@]5(C)[C@H]4CC[C@]23C)c1 1 to 10 min

Indicate its recorded half-life at 1 μM; the compound in question is CCCOc1cncc(C2=CC[C@H]3[C@@H]4CCN5CCCCC[C@]5(C)[C@H]4CC[C@]23C)c1 10 to 60 min

Indicate its recorded half-life at 1 μM; the compound in question is C[C@]12CC[C@H]3[C@@H](CC[C@H]4C[C@@H](O)CC[C@@]43C)C1=CC=C2n1ccnc1 10 to 60 min

Indicate its recorded half-life at 1 μM; the compound in question is CN1CC[C@@]2(C)C(=CC1=O)CC[C@@H]1[C@@H]2CC[C@]2(C)C(n3ccnc3)=CC[C@@H]12 10 to 60 min

Indicate its recorded half-life at 1 μM; the compound in question is Cc1cncc(C2=CC[C@H]3[C@@H]4CC[C@H]5COCCC[C@]5(C)[C@H]4CC[C@]23C)c1 1 to 10 min

Indicate its recorded half-life at 1 μM; the compound in question is COc1cncc(C2=CC[C@H]3[C@@H]4CC[C@H]5COCCC[C@]5(C)[C@H]4CC[C@]23C)c1 1 to 10 min

Indicate its recorded half-life at 1 μM; the compound in question is Cc1cncc(C2=CC[C@H]3[C@@H]4CC[C@H]5COC(=O)CC[C@]5(C)[C@H]4CC[C@]23C)c1 1 to 10 min

Indicate its recorded half-life at 1 μM; the compound in question is C[C@]12CCNC(=O)C=C1CC[C@@H]1[C@@H]2CC[C@]2(C)C(n3ccnn3)=CC[C@@H]12 1 to 10 min

Indicate its recorded half-life at 1 μM; the compound in question is C[C@]12CCOC(=O)C[C@@H]1CC[C@@H]1[C@@H]2CC[C@]2(C)C(c3cccnc3)=CC[C@@H]12 10 to 60 min

###

system_name: CYP17 (human testicular microsome) (Homo sapiens, UniProt P05093)
Construct: using microsomal fraction from human testis (Celsis Cat #S00110) as the enzyme source; tissue Celsis S00110; host or cells: human testis microsomal fraction
Sequence (P05093 1-508): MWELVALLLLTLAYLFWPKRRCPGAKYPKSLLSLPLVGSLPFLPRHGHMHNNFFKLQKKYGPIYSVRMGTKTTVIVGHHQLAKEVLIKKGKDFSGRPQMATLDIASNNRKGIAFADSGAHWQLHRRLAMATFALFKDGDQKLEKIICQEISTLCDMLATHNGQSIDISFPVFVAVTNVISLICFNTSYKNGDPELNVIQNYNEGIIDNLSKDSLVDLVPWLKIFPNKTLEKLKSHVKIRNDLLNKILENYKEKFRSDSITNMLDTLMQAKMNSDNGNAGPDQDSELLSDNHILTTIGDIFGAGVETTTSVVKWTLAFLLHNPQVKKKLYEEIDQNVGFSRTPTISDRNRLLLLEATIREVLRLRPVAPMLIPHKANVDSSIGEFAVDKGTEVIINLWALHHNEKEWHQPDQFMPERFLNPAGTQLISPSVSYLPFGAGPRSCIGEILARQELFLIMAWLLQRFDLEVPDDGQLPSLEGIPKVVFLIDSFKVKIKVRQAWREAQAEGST
protocol_details: CYP17 enzymatic assay (% inhibition at 10 nM), version 1 (Biological Example 5)
Assay type: biochemical
conditions_used: 10 nM compound, DHEA by ELISA, read-out: Biological Example No. 5: CYP17 percent inhibition at 10 nM (version 1)
inhibition at 0.01 µM: recorded values

For orientation, consider the following solved cases.
{"columns": ["molecule", "val"],
 "data": [
  ["COc1cncc(C2=CC=C3[C@@H]4CC=C5C[C@@H](OC(C)=O)CC[C@]5(C)[C@H]4CC[C@]23C)c1", "> 80%"],
  ["C[C@]12CCCC(=O)CC1=CCC1[C@@H]2CC[C@]2(C)C(n3ccnc3)=CC[C@@H]12 (some centres unmarked)", "> 80%"],
  ["Cc1cncc(C2=CC=C3[C@@H]4CCC5=CC(=O)N(C)CC[C@]5(C)[C@H]4CC[C@]23C)c1", "50 to 80%"],
  ["C[C@]12CC(O)C[C@@H]1CC[C@@H]1[C@@H]2CC[C@]2(C)C(n3ccnc3)=CC[C@@H]12 (some centres unmarked)", "> 80%"],
  ["CN1CC[C@@]2(C)C(=CC1=O)CC[C@@H]1[C@@H]2CC[C@]2(C)C(n3ccnc3)=CC[C@@H]12", "> 80%"],
  ["CC(=O)O[C@H]1CC[C@@]2(C)C(=CC[C@H]3C4=CC=C(c5cccnc5)[C@@]4(C)CC[C@@H]32)C1", "1 to 50%"]
]}

Indicate its recorded inhibition at 0.01 µM; the molecule in question is CCc1cncc(C2=CC[C@H]3[C@@H]4CC=C5CCCC[C@]5(C)[C@H]4CC[C@]23C)c1 1 to 50%

Indicate its recorded inhibition at 0.01 µM; the molecule in question is Cc1cncc(C2=CCC3C4CCC5=CN(C)CCC[C@]5(C)C4CC[C@]23C)c1 (some centres unmarked) 1 to 50%

Indicate its recorded inhibition at 0.01 µM; the molecule in question is C[C@]12CCNC(=O)C=C1CC[C@@H]1[C@@H]2CC[C@]2(C)C(c3cnccn3)=CC[C@@H]12 > 80%

Indicate its recorded inhibition at 0.01 µM; the molecule in question is CCc1cncc(C2=CC[C@H]3[C@@H]4CCN5CCCCC[C@]5(C)[C@H]4CC[C@]23C)c1 1 to 50%

Indicate its recorded inhibition at 0.01 µM; the molecule in question is COc1cncc(C2=CC=C3[C@@H]4CCC5=CC(=O)CC[C@]5(C)[C@H]4CC[C@]23C)c1 50 to 80%

Indicate its recorded inhibition at 0.01 µM; the molecule in question is C[C@]12CC[C@H]3[C@@H](CCC4=CC(=O)CC[C@@]43C)C1=CC=C2n1ccnc1 > 80%

Indicate its recorded inhibition at 0.01 µM; the molecule in question is COc1cncc(C2=CC=C3[C@@H]4CCC5=CC(=O)NCC[C@]5(C)[C@H]4CC[C@]23C)c1 50 to 80%

Indicate its recorded inhibition at 0.01 µM; the molecule in question is COc1cncc(C2=CC[C@H]3[C@@H]4CC=C5CCCC[C@]5(C)[C@H]4CC[C@]23C)c1 50 to 80%
